# Test summary: High Content Imaging Cell-Based qHTS for Inhibitors of the mTORC1 Signaling Pathway in MEF (Tsc2-/-, p53-/-) Cells (AID 2666);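 note: percent of cells scored positive for phospho-rpS6 Ser235/236 immunostaining by imaging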
# Condition context: series mostly up to 38.3 µM
Records with an inconclusive call do not appear. The source made the active and inactive calls. Calls come from the whole dose curve; as a rule, active = well fitted inhibition curve with a large enough effect; inconclusive = small, poorly fitted or top-dose-only effect; inactive = flat fitted curve, though single readings scatter.
Measured attribute: Potency

Consider the reported Potency for these compounds:
>>> result("COc1ccccc1N1CCN(CCCNc2cc(=O)n(C)c(=O)n2C)CC1")
"inactive"
>>> result("CCN1CCC[C@H]1CNC(=O)c1cc(S(N)(=O)=O)ccc1OC")
"inactive"
>>> result("C[N+](C)(C)CC(=O)O")
"inactive"
>>> result("COc1cccc(-c2cc(=O)c3ccccc3o2)c1N")
"inactive"
>>> result("CCN(CC)C(=O)c1ccc(O)c(OC)c1")
"inactive"

Prompt line: Could you tell me which Potency is on file for COc1ccc(Cc2nccc3cc(OC)c(OC)cc23)cc1OC ?
Response line: inactive

---

# Test summary: Quantitative High-Throughput drug screen in 47 multiple myeloma cell lines against the NCATS MIPE library collection: XG6_PLB cell viability assay (AID 1919865); note: nearly all actives have a fitted effect of over 40% in size
# Condition context: XG6 myeloma viability, CellTiter-Glo ATP luminescence, 48 h; series mostly up to 45.8 µM
Inconclusive results are not listed. Calls of active or inactive are those of the source. Calls come from the whole dose curve; as a rule, active = well fitted cell-killing curve with a large enough effect; inconclusive = small, poorly fitted or top-dose-only effect, or effect the other way; inactive = no such curve, though single readings can be large or run the other way.
Hi there, use one of these labels in your reply, thanks! true (1) (active), false (0) (inactive)

As a guide, the following entries are already answered.
>>> answer_label("CC=CC(=O)N(CC)c1ccccc1C")
"true (1)"
>>> answer_label("CCNc1cc(NC2CCC(O)CC2)nc(Nc2ccc3c(ccn3Cc3ccccc3)c2)n1 (stereo unspecified)")
"true (1)"
>>> answer_label("O=C1NC(=O)C(=Cc2cccc(C(F)(F)F)c2)S1")
"true (1)"

Prompt line: // param item: Cc1cnc(C(=O)O)c[n+]1[O-] ; yields the recorded call
Response line: false (0)

Prompt line: // param item: COc1ncc(-c2ccc3nccc(-c4ccnnc4)c3c2)cc1NS(=O)(=O)c1ccc(F)cc1F ; yields the recorded call
Response line: true (1)

Prompt line: // param item: O=C(NCc1ccccc1)c1csc(Nc2ccncn2)n1 ; yields the recorded call
Response line: true (1)

Prompt line: // param item: Cc1[nH]c(C=C2C(=O)Nc3ccc(S(=O)(=O)Cc4c(Cl)cccc4Cl)cc32)c(C)c1C(=O)N1CCC[C@H]1CN1CCCC1 ; yields the recorded call
Response line: true (1)

---

# System: CRL-7250
# Test summary: Cytotoxic Profiling of Annotated Libraries Using Quantitative High-Throughput Screening (AID 1296008); note: nearly all actives have a fitted effect of over 60% in size; note: potency is the fitted concentration of half-maximal effect
# Condition context: Five cell lines viability, CellTiter-Glo ATP luminescence, 48-72 h
Results filed as inconclusive are left out. The source made the active and inactive calls. The call rests on the fitted dose curve; in most records, active means well fitted inhibition curve with a large enough effect; inconclusive means small, poorly fitted or top-dose-only effect; inactive means flat fitted curve, though single readings scatter.
Measured attribute: Potency

Consider the reported Potency for these compounds:
>>> result("O=C1NC(=O)C(=Cc2cccc(C(F)(F)F)c2)S1")
"inactive"
>>> result("O=C1C(Cl)=C(NCCN2CCOCC2)C(=O)c2ncccc21")
"9.35 µM (active)"
>>> result("O=C(CCN1CCN(C(=O)OCc2cc(Cl)cc(Cl)c2)CC1)c1ccc2[nH]c(=O)oc2c1")
"inactive"
>>> result("NC1=N[C@@]2(c3cc(NC(=O)c4ccc(F)cn4)ccc3F)COC[C@@H]2CS1")
"inactive"
>>> result("CN1CCN(CCOc2cc(OC3CCOCC3)c3c(Nc4c(Cl)ccc5c4OCO5)ncnc3c2)CC1")
"10.3 µM (active)"
>>> result("O=C(NCc1ccccc1)c1csc(Nc2ccncn2)n1")
"11.8 µM (active)"
>>> result("Cc1ccc(Nc2cc(-c3cccc(N4C(=O)c5ccccc5C4=O)c3)ncn2)cc1NS(C)(=O)=O")
"inactive"
>>> result("CN(C)CCC=C1c2ccccc2COc2ccc(CC(=O)O)cc21")
"inactive"
>>> result("CCN(CC)CCNC(=O)c1ccc(N)cc1")
"inactive"

Prompt line: Could you tell me which Potency is on file for CC1(C)Cc2c(sc(NC(=S)NC(=O)c3ccccc3)c2C(=O)O)CO1 ?
Response line: inactive
